Test system: CCRF-CEM
Test Name: NCI tumour cell line growth inhibition, 48 h
The source made the active and inactive calls. No stated cut-off is given here; in the data, active = GI50 up to about 1.1 µM and inactive = higher.
Endpoint: GI50

Examples with answers:
INSERT INTO measurements (molecule, endpoint, result_value) VALUES
  ('CN(CC(=O)O)c1ccc(/C=C/c2ccnc3ccccc23)cc1', 'GI50', '13.8 µM (inactive)'),
  ('C[C@]12CC[C@@H]3c4cc(Br)c(O)c(Br)c4CC[C@H]3[C@@H]1CC(Br)C2=O (stereo partly specified)', 'GI50', '1.71 µM (inactive)'),
  ('Cc1cc2oc(=O)[nH]c(=S)c2c(C)c1C', 'GI50', '> 100 µM (inactive)'),
  ('NC(Cc1ccc2oc3cc(=O)c4ccccc4c-3nc2c1)C(=O)O (stereo unspecified)', 'GI50', '40.7 µM (inactive)'),
  ('O=C(CCC(=O)Nc1ccc(Cl)c(Cl)c1)CC(=O)c1ccc(Cl)cc1', 'GI50', '> 100 µM (inactive)');

For COC(=O)C(C(=O)C(=O)Nc1ccc(OC)cc1[N+](=O)[O-])c1nc2cc(C)c(C)cc2nc1O (stereo unspecified) on CCRF-CEM, measured GI50 was > 100 µM (inactive)

Reported GI50 (CCRF-CEM) for entry C[Si](C)(C)C#CCOC=C1CC1 is 34.4 µM (inactive)

GI50 on CCRF-CEM for COCN1C(=O)[C@@H]2CCCN2C(=O)c2ccc(N)cc21 is > 100 µM (inactive)

Item Clc1ccc(-n2nnc(C3=NCCN3)c2-c2ccccc2)cc1 was tested on CCRF-CEM; the reported GI50 is > 100 µM (inactive)

Item COc1cc2c(cc1OC)[C@@H](C(O)c1ccccc1)NCC2 (stereo partly specified) was tested on CCRF-CEM; the reported GI50 is > 100 µM (inactive)

Item Nc1nc(Cl)cc(NCC2CC(O)(CO)C2)n1 (stereo unspecified) ; assay system CCRF-CEM; GI50 reported as > 100 µM (inactive)

====

Tested on: CCRF-CEM
Test Name: NCI tumour cell line growth inhibition, 48 h
Calls of active or inactive are those of the source. Cut-off read from the data, not from the text of the source: active = GI50 up to about 1.1 µM and inactive = higher.
Each entry below lists one item and its recorded GI50 value.

INSERT INTO assay_data (compound, result_value) VALUES
  ('Cc1ccc(C2CC(c3ccc([N+](=O)[O-])cc3)=Nc3ccccc3S2)cc1 (stereo not drawn)', '12.9 µM (inactive)'),
  ('Cc1nc(N)c(N2CCNCC2)c(O)n1', '> 100 µM (inactive)');

Now let's try a different one.
Entry under test: NC(=O)c1c(NC=O)ncn1C1OCC(O)C(O)C1O (stereo not drawn) . Its GI50 was > 100 µM (inactive)

====

The compounds listed here are annotated with their GI50.
Tested on: SW-620
Test Name: NCI tumour cell line growth inhibition, 48 h
The source made the active and inactive calls. Cut-off read from the data, not from the text of the source: active = GI50 up to about 1.1 µM and inactive = higher.

INSERT INTO measurements (compound, target_under_test, result_value) VALUES
  ('COc1cccc(/C=N/n2c(Cc3ccc(Cl)cc3)n[nH]c2=O)c1', 'SW-620', '> 100 µM (inactive)');

Record summary for NC1=NN(c2ccccc2)C(=O)C1C(=O)CCC(=O)Nc1cccc(C(F)(F)F)c1 (stereo unspecified) : reported GI50 = 42.6 µM (inactive)

Reported GI50 of COc1ccc(NN=C2C(=O)CCC2=O)cc1 : > 100 µM (inactive)

# GI50 of Nc1nc(SC/C=C/c2ccccc2)c2[nH]cnc2n1 = > 100 µM (inactive)

Lookup result for Oc1ccc2ccccc2c1-c1nnc(CCCCCCCCc2nnc(-c3c(O)ccc4ccccc34)o2)o1 ; measured GI50: 3.44 µM (inactive)

Quick note, GI50 for O=C(Nc1nn(C(=O)c2ccc(Cl)cc2)c(=O)s1)c1ccc(Cl)cc1 landed at > 100 µM (inactive)
